B1: HEEH_KT_rd6_0007 (parent)
chain: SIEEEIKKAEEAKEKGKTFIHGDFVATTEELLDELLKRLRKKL

# Variants of: B1
# PROTOCOL DESCRIPTION: folding stability dG (cDNA display proteolysis); higher = more stable
# CONDITION SET: PBS, room temperature
Tick YES if folding stability dG is 1 kcal/mol or greater. Tick NO if folding stability dG is less than 1 kcal/mol.

[[record]]
variant_identifier = "D33S"
group_label = "YES"

[[record]]
variant_identifier = "I20T"
group_label = "YES"

[[record]]
variant_identifier = "K42L"
group_label = "YES"

[[record]]
variant_identifier = "T28S"
group_label = "YES"

[[record]]
variant_identifier = "A12R"
group_label = "NO"

